method-summary: Plasma protein binding by equilibrium dialysis, dog
Type: in vitro ADME
condition-parameters: dog, dog plasma, read-out: Percentage Plasma Protein Binding, Dogs
Procedure: The in vitro plasma protein binding of compound I and compound III in rat, dog, monkey and human plasma was determined by equilibrium dialysis. Protein binding was assessed by equilibrium dialysis using rat, dog, monkey and human plasma. Samples were assayed by HPLC with LC-MS/MS detection. Plasma protein binding was high (>99%) for all species and for both compounds.
recorded-endpoint: fraction unbound

Input: Look up fraction unbound: CO[P@](=O)(c1cc(C)cc(/C=C/C#N)c1)c1c(C(N)=O)[nH]c2ccc(Cl)cc12
Output: < 0.01
